TEST_SYSTEM: recombinant human PAI-1 (Homo sapiens, UniProt P05121)
Construct: purchased Molecular Innovations, Inc
Sequence (P05121 24-402): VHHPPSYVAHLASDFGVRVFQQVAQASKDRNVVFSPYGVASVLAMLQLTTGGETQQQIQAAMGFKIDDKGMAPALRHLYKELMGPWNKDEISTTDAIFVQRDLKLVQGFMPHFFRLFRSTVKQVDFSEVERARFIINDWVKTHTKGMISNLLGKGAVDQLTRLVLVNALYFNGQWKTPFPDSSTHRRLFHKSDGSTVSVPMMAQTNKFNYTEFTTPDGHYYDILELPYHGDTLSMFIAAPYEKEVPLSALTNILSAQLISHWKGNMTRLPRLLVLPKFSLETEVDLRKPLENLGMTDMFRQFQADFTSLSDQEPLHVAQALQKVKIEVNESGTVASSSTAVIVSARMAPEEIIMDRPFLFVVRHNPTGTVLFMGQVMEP
TEST_SUMMARY: Test Example 1: human PAI-1 inhibitory activity (tPA fluorogenic substrate, pH 7.5 Tris buffer)
Type: biochemical
CONDITION_DETAILS: Compound Concentration 5 μM; Tris buffer

COMPOUND_STRUCTURE	Inhibition Rate of PAI-1 Activity (%)
CC(C)(C)c1ccc(CN(C(=O)C(=O)O)c2ccc(Cl)c(OCc3ccc(OC(F)(F)F)cc3)c2)cc1	62
CCCCc1ccc(COc2ccc(-c3ccc(C(C)(C)C)cc3)cc2CCC(=O)O)cc1	51
CC(C)(C)c1ccc(CN(C(=O)C(=O)O)c2ccccc2Oc2ccc(OC(F)(F)F)cc2)cc1	20

###

TEST_SYSTEM: recombinant human PAI-1 (Homo sapiens, UniProt P05121)
Construct: purchased Molecular Innovations, Inc
TEST_SUMMARY: Test Example 2: human PAI-1 inhibitory activity (tPA fluorogenic substrate, pH 7.4 HEPES buffer)
Type: biochemical
CONDITION_DETAILS: human PAI-1; compound concentration 3 μM
ASSAY_ENDPOINT: Inhibition Rate of PAI-1 Activity (%)

MOLECULE	TEST_SYSTEM	VALUE_REPORTED
CCCCCCOc1ccc(-c2ccc(OC(F)(F)F)cc2)cc1N(CCCCc1ccccc1)C(=O)C(=O)O [Compound 652]	recombinant human PAI-1 (Homo sapiens, UniProt P05121)	>99%
CC(C)(C)c1ccc(Oc2ccc(-c3ccc(OC(F)(F)F)cc3)cc2OCC(=O)O)cc1 [Compound 328]	recombinant human PAI-1 (Homo sapiens, UniProt P05121)	>99%
CC(C)(C)c1ccc(Oc2cc(Nc3ccc(OC(F)(F)F)cc3)ccc2CCC(=O)O)cc1 [Compound 532]	recombinant human PAI-1 (Homo sapiens, UniProt P05121)	>99%

###

Reported Inhibition Rate of PAI-1 Activity (%) values are given for each entry in this list.
TEST_SYSTEM: recombinant human PAI-1 (Homo sapiens, UniProt P05121)
Construct: purchased Molecular Innovations, Inc
TEST_SUMMARY: Test Example 1: human PAI-1 inhibitory activity (tPA fluorogenic substrate, pH 7.5 Tris buffer)
Type: biochemical
CONDITION_DETAILS: Compound Concentration 10 μM; Tris buffer
ASSAY_ENDPOINT: Inhibition Rate of PAI-1 Activity (%)

COMPOUND_STRUCTURE	VALUE_REPORTED
O=C(O)CCc1cc(-c2ccc(OC(F)(F)F)cc2)ccc1OCc1ccccc1C(F)(F)F	11%
CCCOc1ccc(N(CCCc2ccccc2)C(=O)C(=O)O)c(-c2ccc(OC(F)(F)F)cc2)c1	82%
CC(C)(C)c1ccc(COc2cccc(Oc3ccc(OC(F)(F)F)cc3)c2/C=C/C(=O)O)cc1	61%
CSc1ccc(-c2ccc(OCc3ccc(C(C)(C)C)cc3)c(/C=C/C(=O)O)c2)cc1	25%
CC(C)(OCc1ccc(-c2ccc(OC(F)(F)F)cc2)cc1Oc1ccc(C(C)(C)C)cc1)C(=O)O	88%
CC(C)(C)c1ccc(CN(C(=O)C(=O)O)c2ccccc2Oc2ccc(OC(F)(F)F)cc2)cc1	54%
O=C(O)CCc1cc(-c2ccc(OC(F)(F)F)cc2)ccc1OCCCc1ccccc1	73%
CC(C)(C)c1ccc(Oc2ccc(-c3ccc(OC(F)(F)F)cc3)cc2C=CC(=O)O)cc1	94%
O=C(O)Cc1cc(-c2ccc(OC(F)(F)F)cc2)ccc1OCc1ccccc1	31%
